# protocol.notes: Repeated dose 28 day toxicokinetics
# condition.description: female, Sprague Dawley, rat, in vivo, po, 10 mg/kg, AUC0-t, Day 28, female rats, 10 mg/kg oral
measurement.kind: AUC(0-t) (ng·h/mL)
Answers are plain numbers, in ng·h/mL.

Query: Request the reported AUC(0-t) associated with `CN[C@]1(c2ccccc2Cl)CCCCC1=O`
Response: 514

###

# protocol.notes: Single dose crossover study in healthy volunteers, pharmacokinetics
# condition.description: both, human, plasma, po, 100 mg, AUC0-inf, geometric mean, plasma analyte after single dose esketamine 100 mg oral tablet
measurement.kind: AUC(0-inf) (ng·h/mL)
Answers are plain numbers, in ng·h/mL.

Answered cases to consult:
N[C@]1(c2ccccc2Cl)CCCCC1=O [(S)-norketamine]    2280
N[C@]1(c2ccccc2Cl)CCC[C@H](O)C1=O    1960

Proceeding to the next compound to report its AUC(0-inf).
Query: Request the reported AUC(0-inf) associated with `CN[C@]1(c2ccccc2Cl)CCCCC1=O`
Response: 181

###

# protocol.notes: Repeated dose 28 day toxicokinetics
# condition.description: female, Sprague Dawley, rat, in vivo, po, 10 mg/kg, tmax, Day 1, female rats, 10 mg/kg oral
measurement.kind: Tmax (min)
Give bare numbers, in min.

Query: Request the reported Tmax associated with CN[C@]1(c2ccccc2Cl)CCCCC1=O [esketamine]
Response: 10.2

###

# protocol.notes: Repeated dose 28 day toxicokinetics
# condition.description: female, Sprague Dawley, rat, in vivo, po, 2 mg/kg, Cmax, Day 28, female rats, 2 mg/kg oral
measurement.kind: Cmax (ng/mL)
Answers are plain numbers, in ng/mL.

Query: Request the reported Cmax associated with CN[C@]1(c2ccccc2Cl)CCCCC1=O [esketamine]
Response: 133

###

# protocol.notes: Repeated dose 28 day toxicokinetics
# condition.description: female, Sprague Dawley, rat, in vivo, po, 20 mg/kg, AUC0-t, Day 28, female rats, 20 mg/kg oral
measurement.kind: AUC(0-t) (ng·h/mL)
One number for each entry, in ng·h/mL.

Query: Request the reported AUC(0-t) associated with `CN[C@]1(c2ccccc2Cl)CCCCC1=O`
Response: 1060

###

# protocol.notes: Repeated dose 28 day toxicokinetics
# condition.description: male, Sprague Dawley, rat, in vivo, po, 30 mg/kg, AUC0-t, Day 1, male rats, 30 mg/kg oral
# Description: The objective of the study was to assess the potential toxicity, neurobehavioral effects, and toxicokinetics (TK) of esketamine when administered orally, via gavage, to Sprague Dawley rats for 28 days and to evaluate recovery during a 14-day drug-free period. Fifty male and 50 female rats were randomized into 4 groups (15/sex/Groups 1 and 4; 10/sex/Groups 2 and 3). […]
measurement.kind: AUC(0-t)
Write down the value, and be sure its unit follows.

Query: Request the reported AUC(0-t) associated with `CN[C@]1(c2ccccc2Cl)CCCCC1=O`
Response: 580 ng·h/mL

###

# protocol.notes: Repeated dose 28 day toxicokinetics
# condition.description: male, Sprague Dawley, rat, in vivo, po, 30 mg/kg, tmax, Day 28, male rats, 30 mg/kg oral
measurement.kind: Tmax (min)
Numbers only, in min.

Query: Request the reported Tmax associated with `CN[C@]1(c2ccccc2Cl)CCCCC1=O`
Response: 30

###

# protocol.notes: Repeated dose 28 day toxicokinetics
# condition.description: female, Sprague Dawley, rat, in vivo, po, 20 mg/kg, Cmax, Day 28, female rats, 20 mg/kg oral
measurement.kind: Cmax (ng/mL)
Give bare numbers, in ng/mL.

Query: Request the reported Cmax associated with `CN[C@]1(c2ccccc2Cl)CCCCC1=O`
Response: 1450

###

# protocol.notes: Repeated dose 28 day toxicokinetics
# condition.description: male, Sprague Dawley, rat, in vivo, po, 6 mg/kg, Cmax, Day 1, male rats, 6 mg/kg oral
measurement.kind: Cmax (ng/mL)
One number for each entry, in ng/mL.

Query: Request the reported Cmax associated with CN[C@]1(c2ccccc2Cl)CCCCC1=O [esketamine]
Response: 109

###

Field: half-life. Provide a value for each of the compounds that follow.
# protocol.notes: Single dose crossover study in healthy volunteers, pharmacokinetics
# condition.description: both, human, plasma, po, 20 mg, t1/2, geometric mean, plasma analyte after single dose esketamine 20 mg oral tablet

Answered cases to consult:
CN[C@]1(c2ccccc2Cl)CCCCC1=O    2.84 h
N[C@]1(c2ccccc2Cl)CCCCC1=O [(S)-norketamine]    8.75 h

Query: Request the reported half-life associated with `N[C@]1(c2ccccc2Cl)CCC[C@H](O)C1=O`
Response: 7.77 h

###

Field: half-life. Provide a value for each of the molecules that follow.
# protocol.notes: Single dose crossover study in healthy volunteers, pharmacokinetics
# condition.description: both, human, plasma, iv, 0.3 mg/kg, t1/2, geometric mean, plasma analyte after single dose esketamine 0.3 mg/kg iv

Answered cases to consult:
CN[C@]1(c2ccccc2Cl)CCCCC1=O    10.2 h
N[C@]1(c2ccccc2Cl)CCC[C@H](O)C1=O    10.7 h

Proceeding to the next molecule to report its half-life.
Query: Request the reported half-life associated with N[C@]1(c2ccccc2Cl)CCCCC1=O [(S)-norketamine]
Response: 11.3 h

###

# protocol.notes: Repeated dose 28 day toxicokinetics
# condition.description: female, Sprague Dawley, rat, in vivo, po, 20 mg/kg, Cmax, Day 1, female rats, 20 mg/kg oral
measurement.kind: Cmax (ng/mL)
Give bare numbers, in ng/mL.

Query: Request the reported Cmax associated with `CN[C@]1(c2ccccc2Cl)CCCCC1=O`
Response: 672

###

# protocol.notes: Single dose crossover study in healthy volunteers, pharmacokinetics
# condition.description: both, human, plasma, po, 100 mg, AUC0-t, geometric mean, plasma analyte after single dose esketamine 100 mg oral tablet
measurement.kind: AUC(0-t) (ng·h/mL)
Give bare numbers, in ng·h/mL.

CN[C@]1(c2ccccc2Cl)CCCCC1=O [esketamine]    173

For each of the compounds below, note its AUC(0-t).
1. N[C@]1(c2ccccc2Cl)CCC[C@H](O)C1=O [(2S,6S)-OH-Norketamine]
2. N[C@]1(c2ccccc2Cl)CCCCC1=O [(S)-norketamine]

Response:
1950
2270

###

# protocol.notes: Single dose crossover study in healthy volunteers, pharmacokinetics
# condition.description: both, human, plasma, po, 20 mg, AUC0-t, geometric mean, plasma analyte after single dose esketamine 20 mg oral tablet
# Source text: A randomized, open-label 4-way crossover study in 16 healthy male and female subjects was held wherein said subjects were placed in a randomly assigned order and administered esketamine. Each subject was assigned to 1 of 4 treatment sequences according to a randomization code such that 4 subjects were assigned to each treatment sequence. There was a wash-out period of at least 7 days between dosing periods with doses consisting of either oral or intravenous esketamine hydrochloride. […]
Field: AUC(0-t). Provide a value for each of the compounds that follow.
Write down the value, and be sure its unit follows.

For each of the compounds below, note its AUC(0-t).
1. N[C@]1(c2ccccc2Cl)CCC[C@H](O)C1=O
2. N[C@]1(c2ccccc2Cl)CCCCC1=O [(S)-norketamine]
3. CN[C@]1(c2ccccc2Cl)CCCCC1=O

Response:
1: 390 ng·h/mL; 2: 418 ng·h/mL; 3: 20.1 ng·h/mL

###

# protocol.notes: Repeated dose 28 day toxicokinetics
# condition.description: male, Sprague Dawley, rat, in vivo, po, 30 mg/kg, t1/2, Day 1, male rats, 30 mg/kg oral
measurement.kind: half-life
Write down the value, and be sure its unit follows.

Query: Request the reported half-life associated with CN[C@]1(c2ccccc2Cl)CCCCC1=O [esketamine]
Response: 1.2 h

###

Field: Cmax. Provide a value for each of the molecules that follow.
# protocol.notes: Single dose crossover study in healthy volunteers, pharmacokinetics
# condition.description: both, human, plasma, po, 20 mg, Cmax, geometric mean, plasma analyte after single dose esketamine 20 mg oral solution, 15 subjects
One number for each entry, in ng/mL.

Answered cases to consult:
N[C@]1(c2ccccc2Cl)CCC[C@H](O)C1=O    46.5
CN[C@]1(c2ccccc2Cl)CCCCC1=O    16.5

Proceeding to the next molecule to report its Cmax.
Query: Request the reported Cmax associated with N[C@]1(c2ccccc2Cl)CCCCC1=O [(S)-norketamine]
Response: 99.8

###

# protocol.notes: Repeated dose 28 day toxicokinetics
# condition.description: female, Sprague Dawley, rat, in vivo, po, 20 mg/kg, AUC0-t, Day 1, female rats, 20 mg/kg oral
measurement.kind: AUC(0-t) (ng·h/mL)
Numbers only, in ng·h/mL.

Query: Request the reported AUC(0-t) associated with CN[C@]1(c2ccccc2Cl)CCCCC1=O [esketamine]
Response: 993

###

# protocol.notes: Repeated dose 28 day toxicokinetics
# condition.description: female, Sprague Dawley, rat, in vivo, po, 20 mg/kg, tmax, Day 1, female rats, 20 mg/kg oral
measurement.kind: Tmax (min)
Answers are plain numbers, in min.

Query: Request the reported Tmax associated with `CN[C@]1(c2ccccc2Cl)CCCCC1=O`
Response: 10.2

###

# protocol.notes: Single dose crossover study in healthy volunteers, pharmacokinetics
# condition.description: both, human, plasma, po, 20 mg, AUC0-inf, geometric mean, plasma analyte after single dose esketamine 20 mg oral solution
Field: AUC(0-inf). Provide a value for each of the compounds that follow.
Numbers only, in ng·h/mL.

Answered cases to consult:
N[C@]1(c2ccccc2Cl)CCCCC1=O [(S)-norketamine]    417
CN[C@]1(c2ccccc2Cl)CCCCC1=O    25.8

Query: Request the reported AUC(0-inf) associated with `N[C@]1(c2ccccc2Cl)CCC[C@H](O)C1=O`
Response: 378
